Source listed as PubChem BioAssay (NCI).

TGI for assorted compounds
# Tested on: BT-549 breast
# Protocol Notes: NCI tumour cell line growth inhibition, 48 h

Consider the following illustrative entries.
Compound | Test Target | TGI
c1ccc2c(c1)NCCC(=NC1CCCCC1)N2 | BT-549 breast | > 100 µM
CC[C@H](NC(=O)[C@H]1CCCCN1C)C(=O)N(C)[C@H](C[C@@H](OC(C)=O)c1nc(C(=O)N[C@@H](Cc2ccccc2)C[C@H](C)C(=O)O)cs1)C(C)C | BT-549 breast | 0.473 µM
CC1(C)CC(=O)C(/C=N/C(N)=S)=C(O)C1 | BT-549 breast | > 100 µM
Cn1cc(C2=C(c3ccccc3[N+](=O)[O-])C(=O)NC2=O)c2ccccc21 | BT-549 breast | > 20.2 µM
O=C1c2[nH]cc(CNC3CN4CCC3CC4)c2C(=O)c2c1c(O)c1ccccc1c2O (centres undefined) | BT-549 breast | 47.1 µM

In: Give the reported TGI for `COc1cc(C(=O)/C=C/c2ccc(OCCSCCCCCCCCCCSCCOc3ccc(/C=C/C(=O)c4cc(OC)c(OC)c(OC)c4)cc3)cc2)cc(OC)c1OC` (system: BT-549 breast).
Out: > 100 µM

In: Give the reported TGI for `O=c1ccn(CC2(CO)CCCC2)c(=O)[nH]1` (system: BT-549 breast).
Out: > 100 µM

In: Give the reported TGI for `CC(=O)N(C)c1ccc(N=CN(C)C)cc1` (system: BT-549 breast).
Out: > 100 µM

In: Give the reported TGI for `CSC1=Nc2c(c(C)c(-c3ccccc3)n2CCCN2CCCCC2)C2=NC(=O)C[C@H](C)N12` (system: BT-549 breast).
Out: 13.7 µM
